Record set of pKi for target or system JAK3 (Homo sapiens).
pKi: −log10 of the molar value.

Consider the following illustrative entries.
INSERT INTO measurements (compound, test_readout, result) VALUES
  ('Fc1ccc(-c2noc(CN3CCCCC3)c2-c2ccnc(NC3CCCCC3)n2)cc1 [V-05-015]', 'pKi', '< 6.00'),
  ('OC1CCN(Cc2onc(-c3ccc(F)cc3)c2-c2ccnc(NC3CCCCC3)n2)CC1 [V-05-013]', 'pKi', '< 6.00');

Look up and report pKi, with JAK3 (Homo sapiens) as system, for OC[C@@H]1CCCN1Cc1onc(-c2ccc(F)cc2)c1-c1ccnc(NC2CCCCC2)n1 [V-05-014] < 6.00
